B1: E3 ubiquitin-protein ligase Midline-1, residues 172 to 214; numbered along this chain, O15344 (parent)
chain: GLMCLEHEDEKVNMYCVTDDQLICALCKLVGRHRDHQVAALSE

# Variants of: B1
# assay_name: abundance fitness (aPCA) (normalised: wild type 0, dead -1); higher = more abundant; growth selection in yeast, the domain comes from the species named
# measurement_setup: Homo sapiens
property: abundance fitness
One number for each entry.

Known abundance fitness results, listed for orientation:
monomer_sequence: GLMCLEHEEEKVNMYCVTDDQLICALCKLVGRHRDHQVAALSE
property: abundance fitness
measurement: -0.378
--
monomer_sequence: GLMCLEHEDEKVNMYCVTDDQLICALCKLVGRHRDHHVAALSE
property: abundance fitness
measurement: -0.148
--
monomer_sequence: GLMCLEHEDEKVNMYCVTDDQLICALCKLVGRHRDHQVAALSG
property: abundance fitness
measurement: -0.045
--
monomer_sequence: GLMCLEHEDEKVNMYCVTDDQLICALCKLVGRHRDHQVAILSE
property: abundance fitness
measurement: -0.789
--
monomer_sequence: GLMCLEHEDEKVNDYCVTDDQLICALCKLVGRHRDHQVAALSE
property: abundance fitness
measurement: 0.09

Consider the record given below.
GET /value?item= GLMCLEHEDEKVNMYCVTDDQLICALCKQVGRHRDHQVAALSE &field=abundance fitness returns -0.016
